System: intracellular APEC O78 in HD11 cells
Assay: Intracellular survival assay
Type: cell-based, Escherichia coli
Conditions: O78, HD11
MEASUREMENT LABEL: intracellular APEC clearance concentration as multiple of MIC (superscript)

Sample records with intracellular APEC clearance concentration as multiple of MIC (superscript):
MOLECULE: CC1CCCN(CCC(=O)c2ccc(Br)cc2)C1 (stereo not shown)
EXPERIMENTAL SYSTEM: intracellular APEC O78 in HD11 cells
RESULT: a (1X MIC)
--
MOLECULE: CC(=O)OC(C(Br)C(=O)c1ccc([N+](=O)[O-])cc1)C(Cl)(Cl)Cl (stereo not shown)
EXPERIMENTAL SYSTEM: intracellular APEC O78 in HD11 cells
RESULT: b (2X MIC)
--
MOLECULE: COc1cc(CNCCc2ccc(C)cc2)ccc1OCC(O)CN1CCCC1 (stereo not shown)
EXPERIMENTAL SYSTEM: intracellular APEC O78 in HD11 cells
RESULT: a (1X MIC)
--
MOLECULE: CC1CCC(C(C)C)C(OC(=O)Cn2c[n+](CC(=O)OC3CC(C)CCC3C(C)C)c3ccccc32)C1 (stereo not shown)
EXPERIMENTAL SYSTEM: intracellular APEC O78 in HD11 cells
RESULT: b (2X MIC)
--
MOLECULE: COc1cc(CNCCc2ccc3ccccc3c2)ccc1OCC(O)CN1CCCC1 (stereo not shown)
EXPERIMENTAL SYSTEM: intracellular APEC O78 in HD11 cells
RESULT: a (1X MIC)

From here, focus on the item given below.
Asked: Answer with intracellular APEC clearance concentration as multiple of MIC (superscript) of COc1ccc(CCN(Cc2cc3c(cc2Cl)OCO3)CC2CCN(C)CC2)cc1 measured for intracellular APEC O78 in HD11 cells.
Given back: a (1X MIC)

====

System: APEC O8
Assay: MIC and MBC determination in M63 media
Assay type: cell-based
Settings: Escherichia coli
MEASUREMENT LABEL: MBC

Sample records with MBC:
COMPOUND: CC1CCC(C(C)C)C(OC(=O)Cn2c[n+](CC(=O)OC3CC(C)CCC3C(C)C)c3ccccc32)C1 (stereo not shown)
RESULT: 25 µM
//
COMPOUND: COc1ccc(CCN(Cc2cc3c(cc2Cl)OCO3)CC2CCN(C)CC2)cc1
RESULT: 200 µM
//
COMPOUND: CC1CCCN(CCC(=O)c2ccc(Br)cc2)C1 (stereo not shown)
RESULT: 200 µM

Okay, here is my list. What is MBC for each of these?
1. CCN1/C(=C/c2ccc3ccccc3[n+]2CC)C=Cc2ccccc21
2. COc1cc(CNCCc2ccc3ccccc3c2)ccc1OCC(O)CN1CCCC1 (stereo not shown)

Given back:
1: 50 µM; 2: 200 µM

Okay, here is my list. What is MBC for each of these?
1. CC(=O)OC(C(Br)C(=O)c1ccc([N+](=O)[O-])cc1)C(Cl)(Cl)Cl (stereo not shown)
2. COc1cc(CNCCc2ccc(C)cc2)ccc1OCC(O)CN1CCCC1 (stereo not shown)

Given back:
50 µM
100 µM

====

System: intracellular APEC O78, O2, and O1 in infected Caco-2, HD11, and THP1 cells
Experiment: Intracellular survival assay, statements over all serotypes and cells
Format: cell-based, Escherichia coli
Settings: Escherichia coli, 6 h, O78, O2 and O1; Caco-2, HD11, THP-1; 6 h; read-out: concentration clearing intracellular APEC
MEASUREMENT LABEL: minimal effective concentration

Sample records with minimal effective concentration:
MOLECULE: COc1cc(CNCCc2ccc3ccccc3c2)ccc1OCC(O)CN1CCCC1 (stereo not shown)
EXPERIMENTAL SYSTEM: intracellular APEC O78, O2, and O1 in infected Caco-2, HD11, and THP1 cells
RESULT: ≥ 100 µM

MOLECULE: CC1CCC(C(C)C)C(OC(=O)Cn2c[n+](CC(=O)OC3CC(C)CCC3C(C)C)c3ccccc32)C1 (stereo not shown)
EXPERIMENTAL SYSTEM: intracellular APEC O78, O2, and O1 in infected Caco-2, HD11, and THP1 cells
RESULT: ≤ 100 µM

MOLECULE: CCN1/C(=C/c2ccc3ccccc3[n+]2CC)C=Cc2ccccc21
EXPERIMENTAL SYSTEM: intracellular APEC O78, O2, and O1 in infected Caco-2, HD11, and THP1 cells
RESULT: ≤ 100 µM

MOLECULE: CC1CCCN(CCC(=O)c2ccc(Br)cc2)C1 (stereo not shown)
EXPERIMENTAL SYSTEM: intracellular APEC O78, O2, and O1 in infected Caco-2, HD11, and THP1 cells
RESULT: ≥ 100 µM

MOLECULE: CC(=O)OC(C(Br)C(=O)c1ccc([N+](=O)[O-])cc1)C(Cl)(Cl)Cl (stereo not shown)
EXPERIMENTAL SYSTEM: intracellular APEC O78, O2, and O1 in infected Caco-2, HD11, and THP1 cells
RESULT: ≤ 100 µM

MOLECULE: COc1ccc(CCN(Cc2cc3c(cc2Cl)OCO3)CC2CCN(C)CC2)cc1
EXPERIMENTAL SYSTEM: intracellular APEC O78, O2, and O1 in infected Caco-2, HD11, and THP1 cells
RESULT: ≥ 100 µM

From here, focus on the item given below.
Asked: # return recorded minimal effective concentration for entry COc1cc(CNCCc2ccc(C)cc2)ccc1OCC(O)CN1CCCC1 (stereo not shown)
Given back: ≥ 100 µM

Values from paper PMC6193035
